- testedTarget: human FolR2 (Homo sapiens, UniProt P14207)
- Sequence (P14207 with tags, fused parts or gaps): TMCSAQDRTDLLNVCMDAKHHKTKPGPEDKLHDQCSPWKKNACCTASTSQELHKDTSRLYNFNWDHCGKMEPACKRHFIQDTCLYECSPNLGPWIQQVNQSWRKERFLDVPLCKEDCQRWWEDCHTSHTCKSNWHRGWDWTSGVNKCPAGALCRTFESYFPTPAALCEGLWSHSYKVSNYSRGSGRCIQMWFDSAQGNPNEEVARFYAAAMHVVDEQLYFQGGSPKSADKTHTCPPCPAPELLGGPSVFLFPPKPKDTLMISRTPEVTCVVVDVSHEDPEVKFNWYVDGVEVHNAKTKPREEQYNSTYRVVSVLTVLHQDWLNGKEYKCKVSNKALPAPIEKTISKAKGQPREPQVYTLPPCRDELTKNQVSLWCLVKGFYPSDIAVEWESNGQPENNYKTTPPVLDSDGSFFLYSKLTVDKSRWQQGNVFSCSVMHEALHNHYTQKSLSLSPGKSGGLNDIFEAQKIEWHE
- Sequence (P01857 104-330 isoform P01857-1 Y232C/T249S/L251A/Y290V/H318R/Y319F partner): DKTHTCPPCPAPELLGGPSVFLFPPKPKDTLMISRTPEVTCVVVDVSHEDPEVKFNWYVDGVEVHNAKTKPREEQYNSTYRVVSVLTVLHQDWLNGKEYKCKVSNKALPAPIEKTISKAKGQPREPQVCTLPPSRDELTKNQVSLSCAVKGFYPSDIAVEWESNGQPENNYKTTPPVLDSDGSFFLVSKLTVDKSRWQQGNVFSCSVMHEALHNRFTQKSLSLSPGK
- reportedConditions: IgG injected for 60 seconds at 500 nM
propertyLabel: Binding to huFolR2

| molecule | propertyLabel | result |
| --- | --- | --- |
| 36F2: anti-FolR1 clone, generic multi-framework library (Vk_3_20/VH_1_46); Fab and IgG (antibody, V domains shown) VH: QVQLVQSGAEVKKPGASVKVSCKASGYTFTSYYMHWVRQAPGQGLEWMGIINPSGGSTSYAQKFQGRVTMTHDTSTSTVYMELSSLRSEDTAVYYCARSFFTGFHLDYWGQGTLVTVSS VL: EIVLTQSPGTLSLSPGERATLSCRASQSVSSSYLAWYQQKPGQAPRLLIYGASSRATGIPDRFSGSGSGTDFTLTISRLEPEDFAVYYCQQYTNEHYYTFGQGTKVEIK | Binding to huFolR2 | − |
| 5D9: anti-FolR1 clone, generic multi-framework library (Vk3_20/VH1_46); Fab and IgG (antibody, V domains shown) VH: QVQLVQSGAEVKKPGASVKVSCKASGYTFTSYYMHWVRQAPGQGLEWMGIINPSGGSTSYAQKFQGRVTMTRDTSTSTVYMELSSLRSEDTAVYYCARSYIDMDYWGQGTLVTVSS VL: EIVLTQSPGTLSLSPGERATLSCRASQSVSSSYLAWYQQKPGQAPRLLIYGASSRATGIPDRFSGSGSGTDFTLTISRLEPEDFAVYYCQQDNWSPTFGQGTKVEIK | Binding to huFolR2 | + |
